Assay: in vivo
Settings: Sprague-Dawley, rat, iv, 1 mg/kg
Description: Clearance in Sprague-Dawley rat at 1 mg/kg, iv
Value type: clearance (mL/min/kg)
Field: numeric (mL/min/kg). Do not append units.

// query Can you look up the measured clearance of C[C@@H](Nc1cc(-c2c(N)nn3cccnc23)ncn1)c1ccc(F)cc1 for me?
// result 104

----------
Assay: in vivo
Conditions: Sprague-Dawley, rat, iv, 1 mg/kg
Description: Half life in Sprague-Dawley rat at 1 mg/kg, iv
Value type: half-life

// query Field request: half-life | item: C[C@@H](Nc1cc(-c2c(N)nn3cccnc23)ncn1)c1ccc(F)cc1
// result 54 min

Entry source: ChEMBL document CHEMBL1156132
